Readings of pD2 for the listed compounds
# system.under.test: UniProt:P08908
# run.conditions: HeLa

Examples with their reported pD2 follow.
What value of pD2 has been recorded for this entry: COc1ccccc1OCCNCCC1COC(c2ccccc2)(c2ccccc2)O1 (stereo not drawn)
6.16

What value of pD2 has been recorded for this entry: c1ccc(OCCNCC2COC(c3ccccc3)(c3ccccc3)OC2)cc1
5.87

More entries:
What value of pD2 has been recorded for this entry: COc1ccccc1OCCNCC(CO)OC(c1ccccc1)c1ccccc1 (stereo not drawn)
7.53

---

# system.under.test: 5-hydroxytryptamine receptor 1A (Homo sapiens) (UniProt P08908)
# Sequence (whole entry): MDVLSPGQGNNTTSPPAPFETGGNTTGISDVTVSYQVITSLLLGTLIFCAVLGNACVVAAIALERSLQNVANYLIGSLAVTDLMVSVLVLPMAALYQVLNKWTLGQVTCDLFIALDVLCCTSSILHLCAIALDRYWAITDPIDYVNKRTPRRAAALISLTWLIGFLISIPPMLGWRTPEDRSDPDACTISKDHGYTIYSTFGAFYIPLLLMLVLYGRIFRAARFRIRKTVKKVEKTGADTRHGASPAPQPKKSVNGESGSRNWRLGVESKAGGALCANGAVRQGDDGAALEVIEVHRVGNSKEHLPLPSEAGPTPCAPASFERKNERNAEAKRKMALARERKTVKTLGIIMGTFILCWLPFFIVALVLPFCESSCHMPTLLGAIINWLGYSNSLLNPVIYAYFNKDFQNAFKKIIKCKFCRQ
# assay.details: Agonist activity at human recombinant 5HT1A receptor expressed in human HeLa cells assessed as increase in [35S]GTPgammaS binding incubated for 20 mins by liquid scintillation counter relative to control
# Type: functional, cell-based
Readings of Emax for the listed molecules
Could you give me the number in %? Just the number is fine.

Examples with their reported Emax follow.
Entry COc1ccccc1OCCNCCOC(c1ccccc1)c1ccccc1 , system 5-hydroxytryptamine receptor 1A (Homo sapiens) (UniProt P08908): what Emax was measured?
77.3

Entry COc1ccccc1OCCNCC1COC(c2ccccc2)(c2ccccc2)OC1.O=C(O)C(=O)O , system 5-hydroxytryptamine receptor 1A (Homo sapiens) (UniProt P08908): what Emax was measured?
91.6

Entry c1ccc(OCCNCC2CCOC(c3ccccc3)(c3ccccc3)O2)cc1 (stereo not given) , system 5-hydroxytryptamine receptor 1A (Homo sapiens) (UniProt P08908): what Emax was measured?
79.5

More entries:
Entry COc1ccccc1OCCNCC(CO)OC(c1ccccc1)c1ccccc1 (stereo not given) , system 5-hydroxytryptamine receptor 1A (Homo sapiens) (UniProt P08908): what Emax was measured?
90.2

Entry COc1ccccc1OCCNCC[C@@H]1CO[C@H](C(c2ccccc2)c2ccccc2)O1 (relative stereo) , system 5-hydroxytryptamine receptor 1A (Homo sapiens) (UniProt P08908): what Emax was measured?
82.1

---

# system.under.test: Alpha-1B adrenergic receptor (Rattus norvegicus) (UniProt P15823)
# Sequence (P15823 whole entry): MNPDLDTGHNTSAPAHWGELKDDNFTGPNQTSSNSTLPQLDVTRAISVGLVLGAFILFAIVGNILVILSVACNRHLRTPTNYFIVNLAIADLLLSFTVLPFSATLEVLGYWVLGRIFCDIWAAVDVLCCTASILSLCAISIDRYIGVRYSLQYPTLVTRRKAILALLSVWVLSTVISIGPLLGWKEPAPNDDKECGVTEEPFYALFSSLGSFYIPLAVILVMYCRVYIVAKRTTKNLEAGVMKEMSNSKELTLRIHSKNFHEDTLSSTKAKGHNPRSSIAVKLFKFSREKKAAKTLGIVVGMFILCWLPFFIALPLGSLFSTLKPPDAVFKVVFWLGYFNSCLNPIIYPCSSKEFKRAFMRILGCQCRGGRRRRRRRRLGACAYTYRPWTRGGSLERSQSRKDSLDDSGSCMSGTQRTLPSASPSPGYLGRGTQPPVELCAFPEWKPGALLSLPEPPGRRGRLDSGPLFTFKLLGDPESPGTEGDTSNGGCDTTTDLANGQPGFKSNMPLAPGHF
# assay.details: Antagonist activity at alpha-1b adrenergic receptor in Wistar rat spleen assessed as inhibition of (-)-phenylephrine-induced contraction
# Format: tissue-based
metric.name: pKb
Reply: number alone, nothing else.

Examples with their reported pKb follow.
What value of pKb has been recorded for this entry: COc1ccccc1OCCNCC1COC(c2ccccc2)(c2ccccc2)O1 (stereo not given)
7.36

What value of pKb has been recorded for this entry: c1ccc(OCCNCCOC(c2ccccc2)c2ccccc2)cc1
7.01

What value of pKb has been recorded for this entry: c1ccc(OCCNCC2COC(c3ccccc3)(c3ccccc3)OC2)cc1
6.76

What value of pKb has been recorded for this entry: c1ccc(OCCNCC2CCOC(c3ccccc3)(c3ccccc3)O2)cc1 (stereo not given)
6.97

What value of pKb has been recorded for this entry: c1ccc(OCCNC[C@H]2CO[C@H](C(c3ccccc3)c3ccccc3)O2)cc1 (relative stereo)
6.26

More entries:
What value of pKb has been recorded for this entry: COc1ccccc1OCCNCCOC(c1ccccc1)c1ccccc1
7.11

What value of pKb has been recorded for this entry: c1ccc(OCCNCCC2COC(c3ccccc3)(c3ccccc3)O2)cc1 (stereo not given)
6.49

What value of pKb has been recorded for this entry: COc1ccccc1OCCNCC[C@H]1CO[C@H](C(c2ccccc2)c2ccccc2)O1 (relative stereo)
7.13

What value of pKb has been recorded for this entry: COc1ccccc1OCCNCC1COC(c2ccccc2)(c2ccccc2)OC1.O=C(O)C(=O)O
6.8

What value of pKb has been recorded for this entry: c1ccc(OCCNCC2COC(c3ccccc3)(c3ccccc3)O2)cc1 (stereo not given)
5.86

What value of pKb has been recorded for this entry: COc1ccccc1OCCNC[C@@H]1CO[C@H](C(c2ccccc2)c2ccccc2)O1 (relative stereo)
6.75

What value of pKb has been recorded for this entry: COc1ccccc1OCCNCC1CCOC(c2ccccc2)(c2ccccc2)O1 (stereo not given)
7.19

What value of pKb has been recorded for this entry: COc1ccccc1OCCNC[C@H]1CO[C@H](C(c2ccccc2)c2ccccc2)O1 (relative stereo)
6.82

What value of pKb has been recorded for this entry: OCC(CNCCOc1ccccc1)OC(c1ccccc1)c1ccccc1 (stereo not given)
6.98

What value of pKb has been recorded for this entry: COc1ccccc1OCCNCC[C@@H]1CO[C@H](C(c2ccccc2)c2ccccc2)O1 (relative stereo)
6.91

---

# assay.details: Tmax in Sprague-Dawley rat brain at 10 mg/kg, po measured upto 480 mins by LC/MS-MS analysis
# Assay type: ADME, organism-based
metric.name: Tmax (h)
Could you give me the number in h? Just the number is fine.

What value of Tmax has been recorded for this entry: COc1ccccc1OCCNCC1COC(c2ccccc2)(c2ccccc2)OC1.O=C(O)C(=O)O
1

---

Readings of Ki for the listed compounds
Protein target, amino acids: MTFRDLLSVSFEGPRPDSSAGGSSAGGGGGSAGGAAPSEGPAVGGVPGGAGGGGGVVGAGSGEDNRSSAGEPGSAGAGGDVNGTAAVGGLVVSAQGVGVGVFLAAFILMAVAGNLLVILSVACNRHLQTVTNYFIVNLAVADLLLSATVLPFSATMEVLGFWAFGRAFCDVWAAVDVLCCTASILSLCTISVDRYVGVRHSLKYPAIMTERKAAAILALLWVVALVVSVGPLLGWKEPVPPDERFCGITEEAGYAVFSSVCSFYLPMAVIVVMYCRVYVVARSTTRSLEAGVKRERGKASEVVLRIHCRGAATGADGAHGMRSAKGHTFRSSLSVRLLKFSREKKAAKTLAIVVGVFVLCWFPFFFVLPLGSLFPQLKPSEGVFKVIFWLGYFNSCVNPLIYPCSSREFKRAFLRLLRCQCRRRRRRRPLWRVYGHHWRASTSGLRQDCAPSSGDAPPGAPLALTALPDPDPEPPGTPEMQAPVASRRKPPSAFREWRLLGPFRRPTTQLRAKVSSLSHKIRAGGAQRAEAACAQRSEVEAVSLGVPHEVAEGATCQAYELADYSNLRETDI
Could you give me the number in nM? Just the number is fine.

What value of Ki has been recorded for this entry: COc1ccccc1OCCNCCC1COC(c2ccccc2)(c2ccccc2)O1 (configuration not stated)
5.75

What value of Ki has been recorded for this entry: c1ccc(OCCNCCC2COC(c3ccccc3)(c3ccccc3)O2)cc1 (configuration not stated)
30.2

What value of Ki has been recorded for this entry: COc1ccccc1OCCNCC(CO)OC(c1ccccc1)c1ccccc1 (configuration not stated)
5.89

What value of Ki has been recorded for this entry: c1ccc(OCCNCC[C@@H]2CO[C@H](C(c3ccccc3)c3ccccc3)O2)cc1 (relative stereo)
75.9

What value of Ki has been recorded for this entry: COc1ccccc1OCCNCC1COC(c2ccccc2)(c2ccccc2)OC1.O=C(O)C(=O)O
25.1

More entries:
What value of Ki has been recorded for this entry: c1ccc(OCCNCC[C@H]2CO[C@H](C(c3ccccc3)c3ccccc3)O2)cc1 (relative stereo)
95.5

What value of Ki has been recorded for this entry: c1ccc(OCCNC[C@H]2CO[C@H](C(c3ccccc3)c3ccccc3)O2)cc1 (relative stereo)
87.1

---

# system.under.test: 5-hydroxytryptamine receptor 1A (Homo sapiens, UniProt P08908)
# Sequence (P08908 whole entry): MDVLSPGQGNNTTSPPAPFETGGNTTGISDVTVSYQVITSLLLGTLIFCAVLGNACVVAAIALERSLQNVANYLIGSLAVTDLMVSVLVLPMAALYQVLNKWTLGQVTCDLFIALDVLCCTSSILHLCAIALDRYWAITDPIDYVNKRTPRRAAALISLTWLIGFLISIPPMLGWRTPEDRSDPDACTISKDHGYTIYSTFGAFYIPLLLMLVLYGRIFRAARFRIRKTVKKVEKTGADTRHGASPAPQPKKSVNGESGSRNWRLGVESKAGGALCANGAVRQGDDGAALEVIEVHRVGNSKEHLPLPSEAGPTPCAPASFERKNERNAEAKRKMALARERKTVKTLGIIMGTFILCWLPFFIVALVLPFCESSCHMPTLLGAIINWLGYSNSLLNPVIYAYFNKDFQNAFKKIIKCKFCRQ
# assay.details: Displacement of [3H]8-OH-DPAT from human cloned 5HT-1AR transfected in HeLa cells incubated for 30 mins by liquid scintillation counter
metric.name: Ki (nM)
Could you give me the number in nM? Just the number is fine.

Examples with their reported Ki follow.
Entry COc1ccccc1OCCNCC1COC(c2ccccc2)(c2ccccc2)OC1.O=C(O)C(=O)O , system 5-hydroxytryptamine receptor 1A (Homo sapiens, UniProt P08908): what Ki was measured?
1.62

Entry c1ccc(OCCNCC2CCOC(c3ccccc3)(c3ccccc3)O2)cc1 (centres undefined) , system 5-hydroxytryptamine receptor 1A (Homo sapiens, UniProt P08908): what Ki was measured?
1.86

Entry COc1ccccc1OCCNCC[C@@H]1CO[C@H](C(c2ccccc2)c2ccccc2)O1 (relative stereo) , system 5-hydroxytryptamine receptor 1A (Homo sapiens, UniProt P08908): what Ki was measured?
25.7

Entry COc1ccccc1OCCNCCC1COC(c2ccccc2)(c2ccccc2)O1 (centres undefined) , system 5-hydroxytryptamine receptor 1A (Homo sapiens, UniProt P08908): what Ki was measured?
0.501

Entry COc1ccccc1OCCNCCOC(c1ccccc1)c1ccccc1 , system 5-hydroxytryptamine receptor 1A (Homo sapiens, UniProt P08908): what Ki was measured?
7.24

More entries:
Entry c1ccc(OCCNCC[C@H]2CO[C@H](C(c3ccccc3)c3ccccc3)O2)cc1 (relative stereo) , system 5-hydroxytryptamine receptor 1A (Homo sapiens, UniProt P08908): what Ki was measured?
57.5

Entry c1ccc(OCCNCC[C@@H]2CO[C@H](C(c3ccccc3)c3ccccc3)O2)cc1 (relative stereo) , system 5-hydroxytryptamine receptor 1A (Homo sapiens, UniProt P08908): what Ki was measured?
60.3

Entry c1ccc(OCCNCCOC(c2ccccc2)c2ccccc2)cc1 , system 5-hydroxytryptamine receptor 1A (Homo sapiens, UniProt P08908): what Ki was measured?
1.35

Entry COc1ccccc1OCCNC[C@@H]1CO[C@H](C(c2ccccc2)c2ccccc2)O1 (relative stereo) , system 5-hydroxytryptamine receptor 1A (Homo sapiens, UniProt P08908): what Ki was measured?
3.16
